B1: Azoarcus group I ribozyme (parent)
chain: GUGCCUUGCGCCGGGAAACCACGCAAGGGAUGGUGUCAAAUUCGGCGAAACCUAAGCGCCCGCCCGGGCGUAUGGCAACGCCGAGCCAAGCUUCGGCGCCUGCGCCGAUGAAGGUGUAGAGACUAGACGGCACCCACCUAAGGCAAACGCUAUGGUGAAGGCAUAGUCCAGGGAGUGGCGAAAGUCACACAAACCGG

- Variants of: B1
- protocol_details: reverse-splicing fitness (ratio to wild type); higher = more active; in vitro selection; Mg2+ level not given
value_kind: reverse-splicing fitness
// response body must contain only the number

// solved cases for reverse-splicing fitness follow
[
  {
    "mutation_name": "C82G A111U A120U A145U C150G U176A",
    "test_value": 0.00373
  },
  {
    "mutation_name": "A111G A120U C150U C169A U176A",
    "test_value": 0.00336
  },
  {
    "mutation_name": "C82U A120C",
    "test_value": 0.167
  },
  {
    "mutation_name": "C82G A111G A120U A145U C150A C169U U176A",
    "test_value": 0.00305
  }
]

Data request, read-out reverse-splicing fitness, for C82A A111C A120U A145C C150G C169U U176G
0.00285

Data request, read-out reverse-splicing fitness, for A120C A145G C150U C169A
0.0324

Data request, read-out reverse-splicing fitness, for C82U A111U A120G A145C C150A C169U U176G
0.00474

Data request, read-out reverse-splicing fitness, for C82A A111G A145U C150G C169G U176G
0.00584

Data request, read-out reverse-splicing fitness, for C82A A111C A145G C150A C169U U176A
0.0149
